- assayed-system: 3-pTza peptide (Biotin-AminocaproicAcid-A.G.A.G.3-pTza.A.G.A.G)
- test-description: BLI; biotinylated peptide captured on streptavidin biosensors at 20 nM; IgG in solution at 20-200 nM; Octet HTX; 1x HBS-T, 1% BSA

{"binder": "hSC44.8 IgG (antibody, V domains shown) VH: EVQLVESGGGLVQPGGSLRLSCTASGFSIDSYGFSWVRQAPGKGLEHIGYLTAGGRAFYASWAKSRSTITRNTNENTVTLKMNSLRAEDTAVYYCAKIGTGSRVAIWG VL: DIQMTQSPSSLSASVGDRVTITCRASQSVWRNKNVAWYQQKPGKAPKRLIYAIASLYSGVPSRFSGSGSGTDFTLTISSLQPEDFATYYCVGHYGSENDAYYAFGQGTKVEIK", "Kd [nM]": 0.185}
{"binder": "hSC44.1 IgG (antibody, V domains shown) VH: EVQLVESGGGLVQPGGSLRLSCTASGFSIDSYGFSWVRQAPGKGLEHIGYLTAGGRAFYASWAKSRSTITRNTNENTVTLKMNSLRAEDTAVYYCAKLGTGSPIAIWGQGTLVTVSS VL: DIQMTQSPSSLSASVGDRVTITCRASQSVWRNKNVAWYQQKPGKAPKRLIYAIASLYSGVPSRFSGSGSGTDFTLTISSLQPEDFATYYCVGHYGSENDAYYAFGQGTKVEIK", "Kd [nM]": 0.588}
